# experimental-target: human H3R (Homo sapiens, UniProt Q9Y5N1)
# Construct: expressed in transfected cells; host or cells: HEK293
# Sequence (Q9Y5N1 whole entry): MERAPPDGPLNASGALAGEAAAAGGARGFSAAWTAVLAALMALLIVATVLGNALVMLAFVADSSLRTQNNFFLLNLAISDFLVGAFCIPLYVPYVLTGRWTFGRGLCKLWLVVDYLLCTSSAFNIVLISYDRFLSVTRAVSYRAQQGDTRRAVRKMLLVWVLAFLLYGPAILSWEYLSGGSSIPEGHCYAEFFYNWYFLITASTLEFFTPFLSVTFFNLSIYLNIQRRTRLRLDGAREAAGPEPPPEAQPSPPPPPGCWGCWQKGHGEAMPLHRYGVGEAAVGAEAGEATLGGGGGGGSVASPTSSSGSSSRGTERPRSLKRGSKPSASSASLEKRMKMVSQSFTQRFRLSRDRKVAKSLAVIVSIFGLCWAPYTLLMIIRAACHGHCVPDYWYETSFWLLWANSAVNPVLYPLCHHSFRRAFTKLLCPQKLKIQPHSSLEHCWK
# measurement-protocol: [3H]Nα-methylhistamine radioligand binding assay in HEK293 cells stably expressing hH3R
Can you tell me log10(Ki) for the items I'm about to list?
For clarity, the numbers are log10 values of Ki expressed in nM.

stdin: Need log10(Ki), item O=C(c1ccc(Cl)cc1)c1ccc(OCCCCCN2CCCCC2)cc1
stdout: 1.30

stdin: Need log10(Ki), item CC1CCCN(CCCCCOc2ccccc2C(=O)c2ccccc2)C1.O=C(O)C(=O)O (centres unmarked)
stdout: 2.32

stdin: Need log10(Ki), item CC1CCN(CCCCCOc2cccc(C(=O)c3ccccc3)c2)CC1
stdout: 2.47

stdin: Need log10(Ki), item O=C(O)C(=O)O.O=C(c1ccccc1)c1ccccc1OCCCCCCN1CCCCC1
stdout: 2.21

stdin: Need log10(Ki), item O=C(c1ccc(Cl)cc1)c1ccc(OCCCCCCN2CCCCC2)cc1
stdout: 1.40

###

Can you tell me pIC50 for the items I'm about to list?
# experimental-target: electric eel AChE (eeAChE) (Electrophorus electricus)
# Construct: purchased Sigma–Aldrich (Steinheim, Germany)
# Sequence (O42275 24-633): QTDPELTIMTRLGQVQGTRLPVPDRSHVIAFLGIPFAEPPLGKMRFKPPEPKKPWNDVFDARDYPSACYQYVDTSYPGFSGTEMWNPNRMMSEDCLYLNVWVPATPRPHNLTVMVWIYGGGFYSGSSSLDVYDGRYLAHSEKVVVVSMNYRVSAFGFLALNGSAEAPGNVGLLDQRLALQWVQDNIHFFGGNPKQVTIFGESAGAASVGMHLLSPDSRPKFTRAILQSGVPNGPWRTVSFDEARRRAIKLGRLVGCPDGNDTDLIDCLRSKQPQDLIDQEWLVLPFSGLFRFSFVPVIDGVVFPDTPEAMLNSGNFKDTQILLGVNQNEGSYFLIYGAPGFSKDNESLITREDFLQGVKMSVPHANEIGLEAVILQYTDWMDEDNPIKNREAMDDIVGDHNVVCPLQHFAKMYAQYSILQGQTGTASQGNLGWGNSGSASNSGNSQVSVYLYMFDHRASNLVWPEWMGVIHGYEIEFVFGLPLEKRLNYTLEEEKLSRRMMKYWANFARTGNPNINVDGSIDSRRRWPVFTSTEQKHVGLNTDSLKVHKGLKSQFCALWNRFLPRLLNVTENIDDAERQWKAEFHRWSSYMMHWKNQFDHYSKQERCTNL
# measurement-protocol: biochemical
# run-parameters: mean ± SEM, triplicate independent experiments; read-out: eeAChE IC50
// scale note: pIC50 = -log10(conc_M); give the bare number

stdin: Hi! What's the reported pIC50 for CC1CCCN(CCCCCOc2ccc(C(=O)c3ccc(Cl)cc3)cc2)C1 (stereo not drawn) on electric eel AChE (eeAChE) (Electrophorus electricus)?
stdout: 5.58

stdin: Hi! What's the reported pIC50 for CC1CCN(CCCCCOc2ccc(C(=O)c3ccccc3)cc2)CC1 on electric eel AChE (eeAChE) (Electrophorus electricus)?
stdout: 5.58

stdin: Hi! What's the reported pIC50 for CC1CCCN(CCCCCOc2cccc(C(=O)c3ccccc3)c2)C1 (stereo not drawn) on electric eel AChE (eeAChE) (Electrophorus electricus)?
stdout: 5.42

###

# experimental-target: electric eel AChE (eeAChE) (Electrophorus electricus)
# Construct: purchased Sigma–Aldrich (Steinheim, Germany)
# measurement-protocol: biochemical
# run-parameters: read-out: eeAChE % Inh. at 10 µM
Please mark YES if the recorded inhibition at 10 µM is equal to or greater than 20%, and NO if it falls below.

stdin: Determine whether measured inhibition at 10 µM meets or exceeds 20% for O=C(c1ccccc1)c1ccc(OCCCCCN2CCCCC2)cc1 [Compound 4]
stdout: YES

stdin: Determine whether measured inhibition at 10 µM meets or exceeds 20% for O=C(O)C(=O)O.O=C(c1ccccc1)c1ccccc1OCCCCCN1CCCCC1 [Compound 2]
stdout: YES

stdin: Determine whether measured inhibition at 10 µM meets or exceeds 20% for O=C(O)C(=O)O.O=C(c1ccccc1)c1ccccc1OCCCCCN1CCCCCC1 [Compound 26]
stdout: YES

stdin: Determine whether measured inhibition at 10 µM meets or exceeds 20% for O=C(O)C(=O)O.O=C(c1ccccc1)c1ccccc1OCCCCCCN1CCCCC1 [Compound 7]
stdout: NO

###

# experimental-target: hMAO B (Homo sapiens, UniProt P27338)
# Sequence (P27338 1-520): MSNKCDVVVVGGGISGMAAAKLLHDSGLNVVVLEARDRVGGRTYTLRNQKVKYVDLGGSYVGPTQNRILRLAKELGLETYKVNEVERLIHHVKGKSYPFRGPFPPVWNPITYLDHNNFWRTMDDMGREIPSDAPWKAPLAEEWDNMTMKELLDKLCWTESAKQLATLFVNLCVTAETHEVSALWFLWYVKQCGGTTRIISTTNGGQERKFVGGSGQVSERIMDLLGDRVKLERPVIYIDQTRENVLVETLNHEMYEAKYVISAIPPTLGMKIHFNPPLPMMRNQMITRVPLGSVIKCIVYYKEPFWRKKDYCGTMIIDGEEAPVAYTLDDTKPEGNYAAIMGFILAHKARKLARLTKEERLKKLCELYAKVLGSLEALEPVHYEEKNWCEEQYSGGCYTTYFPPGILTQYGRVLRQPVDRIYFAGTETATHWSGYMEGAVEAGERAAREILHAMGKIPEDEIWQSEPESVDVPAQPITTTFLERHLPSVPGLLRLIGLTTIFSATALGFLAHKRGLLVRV
# measurement-protocol: Fluorometric MAO assay, hMAO B inhibition
# Format: biochemical
# run-parameters: mean ± SEM of two independent experiments, read-out: hMAO B %Inh. at 1 µM
observed-property: inhibition at 1 µM (%)
Entry rule: numbers only, all in %.

stdin: Hi! What's the reported inhibition at 1 µM for CC1CCCN(CCCCCCOc2ccc(C(=O)c3ccc(Cl)cc3)cc2)C1 (stereo not drawn) on hMAO B (Homo sapiens, UniProt P27338)?
stdout: 17

stdin: Hi! What's the reported inhibition at 1 µM for CC1CCN(CCCCCOc2cccc(C(=O)c3ccccc3)c2)CC1 on hMAO B (Homo sapiens, UniProt P27338)?
stdout: 32

stdin: Hi! What's the reported inhibition at 1 µM for O=C(c1ccccc1)c1cccc(OCCCCCCN2CCCCCC2)c1 on hMAO B (Homo sapiens, UniProt P27338)?
stdout: 17
